Recorded s/n Ratio for the following binders
Target: T1, HtrA1 (human, UniProt Q92743 23-480, biotin on lysines (Sulfo-NHS-LC-biotin) for panning and SPR)
T1 construct: also called HtrA1 FL; human full-length HtrA1
T1 sequence (Q92743 23-480): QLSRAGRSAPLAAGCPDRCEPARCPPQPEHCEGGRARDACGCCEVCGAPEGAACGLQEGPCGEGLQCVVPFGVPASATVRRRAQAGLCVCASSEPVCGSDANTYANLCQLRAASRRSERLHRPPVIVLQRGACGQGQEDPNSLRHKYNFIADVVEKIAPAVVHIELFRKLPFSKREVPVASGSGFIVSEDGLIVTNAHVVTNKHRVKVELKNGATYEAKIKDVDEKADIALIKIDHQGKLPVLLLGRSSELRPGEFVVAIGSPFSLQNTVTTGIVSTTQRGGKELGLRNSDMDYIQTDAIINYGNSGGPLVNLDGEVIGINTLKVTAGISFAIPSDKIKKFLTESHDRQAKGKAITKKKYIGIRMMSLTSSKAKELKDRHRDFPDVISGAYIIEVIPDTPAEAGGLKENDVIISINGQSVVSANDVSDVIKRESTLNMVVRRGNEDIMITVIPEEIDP
Experiment: ELISA
Conditions: one partner purified
// print number alone

ECKGKGAKCSIQWSVYPWKVCCTGSCRSGKC (designed binder, Conotoxin-MVIIA scaffold) [HtrA1_CnTx83 displayed on M13 phage] ... 16.1
GCHRPWWQLWGLCKQDSDCLAGCVCGPNGFCG (designed binder) [HtrA1_EET76 displayed on M13 phage] ... 13.7
ACKGVFDACTWKNWRQSRSRECCPNAVCSDKHKWCKWKL (designed binder, Huwentoxin scaffold) [HtrA1_HwTx69 displayed on M13 phage] ... 9.6
WIPCISAALGCSCKNKVCYIFSKHLCGESCV (designed binder) [HtrA1_CirA65 displayed on M13 phage] ... 33.9

--- query ---
Field s/n Ratio (entry WIPCISAALGCSCKNKVCYFLYQICGESCV (designed binder) [HtrA1_CirA38 displayed on M13 phage] ) reads 31.9
